- Target: DNA repair and recombination protein RadA (Pyrococcus furiosus (strain ATCC 43587 / DSM 3638 / JCM 8422 / Vc1))
- Protocol text: Thermal Denaturation Assay
pKd: −log10 of the molar value.
Reported property: pKd

Worked cases, pKd given:
# Smiles record, pKd
data = [
    ("Cc1ccc2[nH]ccc2c1", 2.68),
    ("c1ccc2[nH]ncc2c1", 3.00),
]

a = Oc1ccc2[nH]ccc2c1
b = COC(=O)[C@@H](N)Cc1c[nH]c2ccccc12
Req: Which entry shows the lesser value of pKd here, a or b ? Write the label of whichever entry you select.
Resp: a
(a: 2.68, b: 3.24)
